Target: FGR (human)
Assay: radiometric filter-binding kinase assay, Kinase HotSpot
Details: compound 0.5 µM; ATP 10 µM
measured_property: residual activity (%)
Record the value in %, omitting the unit from your answer.

In: Could you tell me which residual activity is on file for CN(C)S(=O)(=O)c1ccc2c(c1)/C(=C/c1cc3c([nH]1)CCCC3)C(=O)N2 ?
Out: 18.2

In: Could you tell me which residual activity is on file for CN(C)CCCn1cc(C2=C(c3c[nH]c4ccccc34)C(=O)NC2=O)c2ccccc21 ?
Out: 90.9

In: Could you tell me which residual activity is on file for CO[C@@H]1[C@H](N(C)C(=O)c2ccccc2)C[C@H]2O[C@]1(C)n1c3ccccc3c3c4c(c5c6ccccc6n2c5c31)C(=O)NC4 ?
Out: 17.4

In: Could you tell me which residual activity is on file for CN(C)c1ccc(/C=C2\C(=O)Nc3ccccc32)cc1 ?
Out: 90

In: Could you tell me which residual activity is on file for COc1ccc2c(c1)/C(=C/c1cnc[nH]1)C(O)=N2 ?
Out: 80.4

In: Could you tell me which residual activity is on file for COc1ccc(Cl)cc1NC(=O)Nc1cc(C)nc2ccccc12 ?
Out: 92

In: Could you tell me which residual activity is on file for CS(=O)(=O)CCNCc1ccc(-c2ccc3ncnc(Nc4ccc(OCc5cccc(F)c5)c(Cl)c4)c3c2)o1 ?
Out: 84.8

In: Could you tell me which residual activity is on file for O=C1c2ccccc2-c2nc3nnnn3nc21 ?
Out: 79.8

In: Could you tell me which residual activity is on file for COc1ccc(S(=O)(=O)N(CCO)c2ccccc2CN(C)C/C=C/c2ccc(Cl)cc2)cc1 ?
Out: 99.8

In: Could you tell me which residual activity is on file for COc1cc2ncnc(Nc3ccc(OCc4ccccc4)cc3)c2cc1OC ?
Out: 72.2

In: Could you tell me which residual activity is on file for Cc1cccc(-c2nc(C(C)(C)C)[nH]c2-c2ccc3c(c2)OCO3)n1 ?
Out: 99.9

In: Could you tell me which residual activity is on file for c1ccc2c(-c3ccncc3)c[nH]c2c1 ?
Out: 94.5

In: Could you tell me which residual activity is on file for O=C1NC(=O)c2c1c1c3ccccc3[nH]c1n1cncc21 ?
Out: 94.8

In: Could you tell me which residual activity is on file for N#C/C(=C\c1ccc(O)c(O)c1)C(=O)NCc1ccccc1 ?
Out: 93.7

In: Could you tell me which residual activity is on file for CCCCc1c(-c2ccc(OC)cc2)[nH]c2nccnc12 ?
Out: 57.1

In: Could you tell me which residual activity is on file for COc1cc2ncnc(Nc3ccc(Oc4ccccc4)cc3)c2cc1OC ?
Out: 8.91

In: Could you tell me which residual activity is on file for NC(=O)c1cccc(-c2cc(Nc3ccc(OC(F)(F)F)cc3)ncn2)c1 ?
Out: 96.8

In: Could you tell me which residual activity is on file for C[C@@H]1CCN(C(=O)CC#N)C[C@@H]1N(C)c1ncnc2[nH]ccc12 ?
Out: 91.1

In: Could you tell me which residual activity is on file for Ic1cccc(CSc2nnc(-c3ccncc3)o2)c1 ?
Out: 90.9

In: Could you tell me which residual activity is on file for Fc1ccc(-c2nc3n(c2-c2ccncc2)CCS3)cc1 ?
Out: 92.6

In: Could you tell me which residual activity is on file for CC(C)(C)c1cc(C=C(C#N)C#N)cc(Br)c1O ?
Out: 75.4

In: Could you tell me which residual activity is on file for Cn1c2ccccc2c2c3c(c4c5ccccc5n(CCC#N)c4c21)CNC3=O ?
Out: 70.7
